# Tested target: MMP-7 (Homo sapiens)
# Sequence (P09237 95-267): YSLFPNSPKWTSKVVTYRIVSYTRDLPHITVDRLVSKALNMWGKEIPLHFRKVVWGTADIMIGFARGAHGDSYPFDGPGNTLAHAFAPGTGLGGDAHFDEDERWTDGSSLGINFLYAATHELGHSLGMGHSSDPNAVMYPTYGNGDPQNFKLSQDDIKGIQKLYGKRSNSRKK
# Procedure details: TPL (thiopeptolide) assay, MMP-7
# Assay type: biochemical
# Measurement context: read-out: IC50 MMP-7
pIC50: −log10 of the molar value.
Value kind: pIC50

Smiles str | Value kind | Assay value
O=C(O)c1ccc(CNC(=O)c2cc(-c3ccc(OC(F)(F)F)cc3)cs2)cc1 | pIC50 | < 4.52

###

# Tested target: MMP-3 (Homo sapiens, UniProt P08254)
# Sequence (P08254 100-477): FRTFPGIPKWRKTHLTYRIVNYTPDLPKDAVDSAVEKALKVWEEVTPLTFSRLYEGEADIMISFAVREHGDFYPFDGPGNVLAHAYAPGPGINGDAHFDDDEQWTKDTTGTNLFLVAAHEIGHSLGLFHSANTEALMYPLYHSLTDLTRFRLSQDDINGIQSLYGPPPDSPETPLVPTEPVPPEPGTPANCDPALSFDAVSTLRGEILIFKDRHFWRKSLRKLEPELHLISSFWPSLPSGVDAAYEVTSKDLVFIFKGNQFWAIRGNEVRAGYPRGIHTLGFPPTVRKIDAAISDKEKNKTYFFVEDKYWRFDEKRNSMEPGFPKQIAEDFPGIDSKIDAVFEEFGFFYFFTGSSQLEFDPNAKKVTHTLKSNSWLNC
# Procedure details: TPL (thiopeptolide) assay, MMP-3
# Format: biochemical
# Measurement context: read-out: IC50 MMP-3
Counter-ions that a name gives are not always drawn.
Readings of IC50 for the listed compounds
Value kind: IC50 (nM)

Compound | Value kind | U | Relation qualifier | Assay value
O=C(O)C[C@@H](NC(=O)c1cc(-c2ccc(-c3ccncc3)cc2)cs1)c1ccccc1 [Example 6, hydrochloride] | IC50 | nM | > | 1700
COc1cccc(COC(=O)c2cc3c(=O)n(Cc4ccc(-c5nn[nH]n5)cc4)c(=O)[nH]c3s2)c1 | IC50 | nM | = | 160
COc1ccc(CC#Cc2ccc3ncn(Cc4ccc(C(=O)O)cc4)c(=O)c3c2)cc1 | IC50 | nM | = | 220
O=C(O)c1ccc(CNC(=O)c2cc(-c3ccc(OC(F)(F)F)cc3)cs2)cc1 | IC50 | nM | > | 30000
COc1ccc(CC#Cc2ccc3c(c2)c(=O)n(Cc2ccc(C(=O)O)cc2)c(=O)n3C)cc1 | IC50 | nM | = | 830

###

# Tested target: MMP-13 catalytic domain (MMP-13CD) (Homo sapiens, UniProt P45452)
# Construct: The catalytic domain of the MMP-13 enzyme, namely matrix metalloproteinase-13 catalytic domain (“MMP-13CD”)
# Procedure details: Fluorigenic peptide-1 substrate based assay, MMP-13CD, with/without AcNHOH
# Assay type: biochemical
# Measurement context: FP1 substrate, 15 mM AcNHOH (1 Kd), read-out: With AcNHOH IC50

Smiles str | Tested target | IC50 / nM
O=C(NC(=S)NCc1cc(-c2ccccc2)no1)c1ccccc1 | MMP-13 catalytic domain (MMP-13CD) (Homo sapiens, UniProt P45452) | 200

###

# Tested target: MMP-2 (Homo sapiens)
# Sequence (P08253 110-660): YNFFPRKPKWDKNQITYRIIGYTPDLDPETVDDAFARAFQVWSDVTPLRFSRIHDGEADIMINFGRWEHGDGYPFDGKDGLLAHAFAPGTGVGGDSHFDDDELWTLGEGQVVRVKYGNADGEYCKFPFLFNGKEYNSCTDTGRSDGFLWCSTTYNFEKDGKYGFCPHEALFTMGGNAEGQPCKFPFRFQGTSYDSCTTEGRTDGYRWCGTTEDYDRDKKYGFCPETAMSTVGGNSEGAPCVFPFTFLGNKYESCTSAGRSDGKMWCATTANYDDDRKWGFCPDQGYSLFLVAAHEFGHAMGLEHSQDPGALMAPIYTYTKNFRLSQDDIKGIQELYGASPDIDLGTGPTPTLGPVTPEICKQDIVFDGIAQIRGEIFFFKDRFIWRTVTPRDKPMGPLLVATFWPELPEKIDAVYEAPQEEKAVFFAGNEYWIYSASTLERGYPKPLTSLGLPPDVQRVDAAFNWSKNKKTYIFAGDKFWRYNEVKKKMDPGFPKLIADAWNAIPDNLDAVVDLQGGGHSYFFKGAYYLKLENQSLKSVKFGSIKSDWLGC
# Procedure details: TPL (thiopeptolide) assay, MMP-2
# Format: biochemical
# Measurement context: unit inferred, read-out: Activities measured by TPL assays, MMP-2

Smiles str | IC50
O=C(OCc1ccccc1)c1ccc2[nH]c(=O)n(Cc3ccccc3)c(=O)c2c1 | > 100 µM
